Below, each entry is listed alongside its reported melting point.

- COc1ccc(-c2cccc(C3=CCC(OC(Cc4ccccc4)C(=O)O)(c4c(Cc5ccccc5)oc5ccccc45)C=C3)c2)cc1 (centres undefined): 73 to 75 °C

Tell me the measured melting point of CCCCCCCN(CCCCCS(=O)(=O)c1nc(-c2ccccc2)c(-c2ccccc2)[nH]1)C(=O)Nc1ccc(F)cc1F , please.
66 to 68 °C

---

Below, each entry is listed alongside its reported melting point.

Example compounds with recorded melting point:
- COc1cc(OC(C)C)ccc1/C=C/c1cc(/C=C/c2ccc3cc[nH]c3c2)n[nH]1: 107 to 113 °C
- C[C@]1(COc2ccc(N3CCN(C(=O)NCc4ccc(OC(F)(F)F)cc4)CC3)cc2)Cn2cc([N+](=O)[O-])nc2O1: 166 to 168 °C
- O=C(O)CCCCOC(c1ccccc1)(c1ccccc1)c1ccccc1: 146 to 148 °C
- CCCCCCCCCCCCNC(=O)c1cc(-c2ccc(OC)cc2)cc(-c2cccc(Cl)c2OCC(=O)O)c1: 114 to 117 °C
- O=C1C(=Cc2cccnc2)CCc2ccc(Br)cc21: 124 to 125 °C
- CCCCCCCCCCCCCCCC(=O)OCc1ccco1: 31 to 33 °C
- O=C(O)c1ccccc1NC(C(=O)O)c1ccc(Br)cc1 (stereo unspecified): 216 °C
- Clc1ccc(-c2nc(I)c[nH]2)cc1Cl: 206 to 207 °C

Tell me the measured melting point of NCc1ccc(-c2nc(-c3ccc(F)cc3)c(-c3ccncc3)[nH]2)cc1 , please.
214 to 215 °C

Same question for Cc1oc(-c2ccccc2)nc1COc1ccc2c(-c3ccccc3)c(CO)oc2c1 please.
152 to 153 °C

Same question for Clc1cc2cc[nH]c2cn1 please.
192 to 194 °C

Same question for CC(CO)Cn1cnc2c(N)nc3ccccc3c21 (stereo unspecified) please.
258 to 261 °C

Same question for Cc1ccc(C(C)(C)C)cc1S(=O)(=O)Cl please.
137 to 138 °C

Same question for O=C(O)CC1Sc2ccc([N+](=O)[O-])cc2CN(CCc2ccccc2)C1=O (stereo unspecified) please.
210 to 214 °C

Same question for O=C(CBr)c1ccc(OCC(=O)N2CCOCC2)cc1 please.
105 to 107 °C

Same question for CCC(CC)n1ccn(-c2ccc(N3CCN(c4ccc(OC)cc4)CC3)cc2)c1=O please.
196 °C

Same question for CN1CCCC(CC(C#N)(Cn2cncn2)c2ccc(Cl)cc2Cl)C1 (stereo unspecified) please.
125 to 126 °C

---

MEASUREMENT_TYPE: melting point

- CCOC(=O)C1CCc2[nH]c3ccc(F)cc3c2C1 (centres undefined): 115 to 117 °C

Tell me the measured melting point of Cc1cccc(NC(=O)CN2c3ccc(Cl)c(Cl)c3[C@@H]3CCN(C(=O)OC(C)(C)C)CC[C@@H]32)c1C (relative stereo) , please.
146 °C

Same question for CCCCCCCCCCCCCCC1CC(=O)N(NC(=O)CCc2cc(C(C)(C)C)c(O)c(C(C)(C)C)c2)C1=O (centres undefined) please.
70 to 77 °C

Same question for Cc1ccc(C2(CNC(=O)Nc3c(C(C)C)cccc3C(C)C)CCCC2)cc1 please.
159 to 161 °C
